Recorded values, source the supplement of paper PMC5998384.

# System: HeLa Kyoto
# EXPERIMENTAL DETAILS: solubility change mitosis vs G1/S (difference of NP-40 vs SDS log2 ratios) (log2 ratio difference); higher = more soluble in mitosis
List of solubility change mitosis (log2) values.
QUANTITY KIND: solubility change mitosis (log2)

residue_sequence="MDCGSVGGQRTQRLPGRQRLLFLPVGLSGRPGGSETSARRCLSALSDGLGALRPRAPAARGGVSRASPLLLLLLVPSPRLAAAAPRRQLGDWERSRLGYAAPPAGRSSAWRCSPGVAAAAGALPQYHGPAPALVSCRRELSLSAGSLQLERKRRDFTSSGSRKLYFDTHALVCLLEDNGFATQQAEIIVSALVKILEANMDIVYKDMVTKMQQEITFQQVMSQIANVKKDMIILEKSEFSALRAENEKIKLELHQLKQQVMDEVIKVRTDTKLDFNLEKSRVKELYSLNEKKLLELRTEIVALHAQQDRALTQTDRKIETEVAGLKTMLESHKLDNIKYLAGSIFTCLTVALGFYRLWI [MCUR1]" quantity_kind="solubility change mitosis (log2)" data_value=-0.0249
residue_sequence="MERASLIQKAKLAEQAERYEDMAAFMKGAVEKGEELSCEERNLLSVAYKNVVGGQRAAWRVLSSIEQKSNEEGSEEKGPEVREYREKVETELQGVCDTVLGLLDSHLIKEAGDAESRVFYLKMKGDYYRYLAEVATGDDKKRIIDSARSAYQEAMDISKKEMPPTNPIRLGLALNFSVFHYEIANSPEEAISLAKTTFDEAMADLHTLSEDSYKDSTLIMQLLRDNLTLWTADNAGEEGGEAPQEPQS [SFN]" quantity_kind="solubility change mitosis (log2)" data_value=0.358
residue_sequence="MLRLLASGCARGPGPGVGARPAAGLFHPGRRQSRQASDAPRNQPPSPEFVARPVGVCSMMRLPVQTSPEGLDAAFIGVPLDTGTSNRPGARFGPRRIREESVMLGTVNPSTGALPFQSLMVADLGDVNVNLYNLQDSCRRIQEAYEKIVAAGCIPLTLGGDHTITYPILQAMAKKHGPVGLLHVDAHTDTTDKALGEKLYHGAPFRRCVDEGLLDCKRVVQIGIRGSSTTLDPYRYNRSQGFRVVLAEDCWMKSLVPLMGEVRQQMGGKPIYISFDIDALDPAYAPGTGTPEIAGLTPSQALEIIRGCQGLNVMGCDLVEVSPPYDLSGNTALLAANLLFEMLCALPKVTTV [AGMAT]" quantity_kind="solubility change mitosis (log2)" data_value=0.0673
residue_sequence="MSAEVETSEGVDESEKKNSGALEKENQMRMADLSELLKEGTKEAHDRAENTQFVKDFLKGNIKKELFKLATTALYFTYSALEEEMERNKDHPAFAPLYFPMELHRKEALTKDMEYFFGENWEEQVQCPKAAQKYVERIHYIGQNEPELLVAHAYTRYMGDLSGGQVLKKVAQRALKLPSTGEGTQFYLFENVDNAQQFKQLYRARMNALDLNMKTKERIVEEANKAFEYNMQIFNELDQAGSTLARETLEDGFPVHDGKGDMRKCPFYAAEQDKGALEGSSCPFRTAMAVLRKPSLQFILAAGVALAAGLLAWYYM [HMOX2]" quantity_kind="solubility change mitosis (log2)" data_value=0.0224
residue_sequence="MSESSSKSSQPLASKQEKDGTEKRGRGRPRKQPPVSPGTALVGSQKEPSEVPTPKRPRGRPKGSKNKGAAKTRKTTTTPGRKPRGRPKKLEKEEEEGISQESSEEEQ [HMGA1]" quantity_kind="solubility change mitosis (log2)" data_value=1.62
residue_sequence="MGSQALPPGPMQTLIFFDMEATGLPFSQPKVTELCLLAVHRCALESPPTSQGPPPTVPPPPRVVDKLSLCVAPGKACSPAASEITGLSTAVLAAHGRQCFDDNLANLLLAFLRRQPQPWCLVAHNGDRYDFPLLQAELAMLGLTSALDGAFCVDSITALKALERASSPSEHGPRKSYSLGSIYTRLYGQSPPDSHTAEGDVLALLSICQWRPQALLRWVDAHARPFGTIRPMYGVTASARTKPRPSAVTTTAHLATTRNTSPSLGESRGTKDLPPVKDPGALSREGLLAPLGLLAILTLAVATLYGLSLATPGE [TREX1]" quantity_kind="solubility change mitosis (log2)" data_value=0.329
residue_sequence="MDSDDEMVEEAVEGHLDDDGLPHGFCTVTYSSTDRFEGNFVHGEKNGRGKFFFFDGSTLEGYYVDDALQGQGVYTYEDGGVLQGTYVDGELNGPAQEYDTDGRLIFKGQYKDNIRHGVCWIYYPDGGSLVGEVNEDGEMTGEKIAYVYPDERTALYGKFIDGEMIEGKLATLMSTEEGRPHFELMPGNSVYHFDKSTSSCISTNALLPDPYESERVYVAESLISSAGEGLFSKVAVGPNTVMSFYNGVRITHQEVDSRDWALNGNTLSLDEETVIDVPEPYNHVSKYCASLGHKANHSFTPNCIYDMFVHPRFGPIKCIRTLRAVEADEELTVAYGYDHSPPGKSGPEAPEWYQVELKAFQATQQK [SETD7]" quantity_kind="solubility change mitosis (log2)" data_value=-0.119
residue_sequence="MMWQKYAGSRRSMPLGARILFHGVFYAGGFAIVYYLIQKFHSRALYYKLAVEQLQSHPEAQEALGPPLNIHYLKLIDRENFVDIVDAKLKIPVSGSKSEGLLYVHSSRGGPFQRWHLDEVFLELKDGQQIPVFKLSGENGDEVKKE [COA1]" quantity_kind="solubility change mitosis (log2)" data_value=0.0489
residue_sequence="MAAIPPDSWQPPNVYLETSMGIIVLELYWKHAPKTCKNFAELARRGYYNGTKFHRIIKDFMIQGGDPTGTGRGGASIYGKQFEDELHPDLKFTGAGILAMANAGPDTNGSQFFVTLAPTQWLDGKHTIFGRVCQGIGMVNRVGMVETNSQDRPVDDVKIIKAYPSG [PPIL1]" quantity_kind="solubility change mitosis (log2)" data_value=0.414
residue_sequence="MLGIWTLLPLVLTSVARLSSKSVNAQVTDINSKGLELRKTVTTVETQNLEGLHHDGQFCHKPCPPGERKARDCTVNGDEPDCVPCQEGKEYTDKAHFSSKCRRCRLCDEGHGLEVEINCTRTQNTKCRCKPNFFCNSTVCEHCDPCTKCEHGIIKECTLTSNTKCKEEGSRSNLGWLCLLLLPIPLIVWVKRKEVQKTCRKHRKENQGSHESPTLNPETVAINLSDVDLSKYITTIAGVMTLSQVKGFVRKNGVNEAKIDEIKNDNVQDTAEQKVQLLRNWHQLHGKKEAYDTLIKDLKKANLCTLAEKIQTIILKDITSDSENSNFRNEIQSLV [FAS]" quantity_kind="solubility change mitosis (log2)" data_value=0.0304

----------
# System: HeLa Kyoto
# EXPERIMENTAL DETAILS: solubility in G1/S (NP-40 vs SDS abundance) (log2 ratio); higher = more soluble
# ASSAY CONDITIONS: cell cycle stage: G1/S
QUANTITY KIND: solubility in G1/S (log2)

substance="MAYQSLRLEYLQIPPVSRAYTTACVLTTAAVQLELITPFQLYFNPELIFKHFQIWRLITNFLFFGPVGFNFLFNMIFLYRYCRMLEEGSFRGRTADFVFMFLFGGFLMTLFGLFVSLVFLGQAFTIMLVYVWSRRNPYVRMNFFGLLNFQAPFLPWVLMGFSLLLGNSIIVDLLGIAVGHIYFFLEDVFPNQPGGIRILKTPSILKAIFDTPDEDPNYNPLPEERPGGFAWGEGQRLGG [DERL2]" quantity_kind="solubility in G1/S (log2)" data_value=-0.0605
substance="MAAAAELSLLEKSLGLSKGNKYSAQGERQIPVLQTNNGPSLTGLTTIAAHLVKQANKEYLLGSTAEEKAIVQQWLEYRVTQVDGHSSKNDIHTLLKDLNSYLEDKVYLTGYNFTLADILLYYGLHRFIVDLTVQEKEKYLNVSRWFCHIQHYPGIRQHLSSVVFIKNRLYTNSH [EEF1E1]" quantity_kind="solubility in G1/S (log2)" data_value=0.394
substance=HNRNPU quantity_kind="solubility in G1/S (log2)" data_value=-0.381

----------
# Test system: HeLa Kyoto
# EXPERIMENTAL DETAILS: melting temperature (median over replicates), in situ; higher = more thermally stable
# ASSAY CONDITIONS: cell cycle stage: G1/S
QUANTITY KIND: melting temperature (°C)

substance="MDPSLLRERELFKKRALSTPVVEKRSASSESSSSSSKKKKTKVEHGGSSGSKQNSDHSNGSFNLKALSGSSGYKFGVLAKIVNYMKTRHQRGDTHPLTLDEILDETQHLDIGLKQKQWLMTEALVNNPKIEVIDGKYAFKPKYNVRDKKALLRLLDQHDQRGLGGILLEDIEEALPNSQKAVKALGDQILFVNRPDKKKILFFNDKSCQFSVDEEFQKLWRSVTVDSMDEEKIEEYLKRQGISSMQESGPKKVAPIQRRKKPASQKKRRFKTHNEHLAGVLKDYSDITSSK [GTF2E2]" data_value=48.9
substance="MDQCVTVERELEKVLHKFSGYGQLCERGLEELIDYTGGLKHEILQSHGQDAELSGTLSLVLTQCCKRIKDTVQKLASDHKDIHSSVSRVGKAIDKNFDSDISSVGIDGCWQADSQRLLNEVMVEHFFRQGMLDVAEELCQESGLSVDPSQKEPFVELNRILEALKVRVLRPALEWAVSNREMLIAQNSSLEFKLHRLYFISLLMGGTTNQREALQYAKNFQPFALNHQKDIQVLMGSLVYLRQGIENSPYVHLLDANQWADICDIFTRDACALLGLSVESPLSVSFSAGCVALPALINIKAVIEQRQCTGVWNQKDELPIEVDLGKKCWYHSIFACPILRQQTTDNNPPMKLVCGHIISRDALNKMFNGSKLKCPYCPMEQSPGDAKQIFF [RMND5A]" data_value=51.1
substance=ARHGEF12 data_value=50.7
substance="MASTSYDYCRVPMEDGDKRCKLLLGIGILVLLIIVILGVPLIIFTIKANSEACRDGLRAVMECRNVTHLLQQELTEAQKGFQDVEAQAATCNHTVMALMASLDAEKAQGQKKVEELEGEITTLNHKLQDASAEVERLRRENQVLSVRIADKKYYPSSQDSSSAAAPQLLIVLLGLSALLQ [BST2]" data_value=57.4
substance="MALNKNHSEGGGVIVNNTESILMSYDHVELTFNDMKNVPEAFKGTKKGTVYLTPYRVIFLSKGKDAMQSFMMPFYLMKDCEIKQPVFGANYIKGTVKAEAGGGWEGSASYKLTFTAGGAIEFGQRMLQVASQASRGEVPSGAYGYSYMPSGAYVYPPPVANGMYPCPPGYPYPPPPPEFYPGPPMMDGAMGYVQPPPPPYPGPMEPPVSGPDVPSTPAAEAKAAEAAASAYYNPGNPHNVYMPTSQPPPPPYYPPEDKKTQ [WBP2]" data_value=54.1
substance="MAGPELLLDSNIRLWVVLPIVIITFFVGMIRHYVSILLQSDKKLTQEQVSDSQVLIRSRVLRENGKYIPKQSFLTRKYYFNNPEDGFFKKTKRKVVPPSPMTDPTMLTDMMKGNVTNVLPMILIGGWINMTFSGFVTTKVPFPLTLRFKPMLQQGIELLTLDASWVSSASWYFLNVFGLRSIYSLILGQDNAADQSRMMQEQMTGAAMAMPADTNKAFKTEWEALELTDHQWALDDVEEELMAKDLHFEGMFKKELQTSIF [EMC3]" data_value=54.1
